# target under test: hTRPC5 (Homo sapiens, UniProt Q9UL62)
# Construct: expressed in transfected cells; host or cells: HEK-293
# Sequence (Q9UL62 whole entry): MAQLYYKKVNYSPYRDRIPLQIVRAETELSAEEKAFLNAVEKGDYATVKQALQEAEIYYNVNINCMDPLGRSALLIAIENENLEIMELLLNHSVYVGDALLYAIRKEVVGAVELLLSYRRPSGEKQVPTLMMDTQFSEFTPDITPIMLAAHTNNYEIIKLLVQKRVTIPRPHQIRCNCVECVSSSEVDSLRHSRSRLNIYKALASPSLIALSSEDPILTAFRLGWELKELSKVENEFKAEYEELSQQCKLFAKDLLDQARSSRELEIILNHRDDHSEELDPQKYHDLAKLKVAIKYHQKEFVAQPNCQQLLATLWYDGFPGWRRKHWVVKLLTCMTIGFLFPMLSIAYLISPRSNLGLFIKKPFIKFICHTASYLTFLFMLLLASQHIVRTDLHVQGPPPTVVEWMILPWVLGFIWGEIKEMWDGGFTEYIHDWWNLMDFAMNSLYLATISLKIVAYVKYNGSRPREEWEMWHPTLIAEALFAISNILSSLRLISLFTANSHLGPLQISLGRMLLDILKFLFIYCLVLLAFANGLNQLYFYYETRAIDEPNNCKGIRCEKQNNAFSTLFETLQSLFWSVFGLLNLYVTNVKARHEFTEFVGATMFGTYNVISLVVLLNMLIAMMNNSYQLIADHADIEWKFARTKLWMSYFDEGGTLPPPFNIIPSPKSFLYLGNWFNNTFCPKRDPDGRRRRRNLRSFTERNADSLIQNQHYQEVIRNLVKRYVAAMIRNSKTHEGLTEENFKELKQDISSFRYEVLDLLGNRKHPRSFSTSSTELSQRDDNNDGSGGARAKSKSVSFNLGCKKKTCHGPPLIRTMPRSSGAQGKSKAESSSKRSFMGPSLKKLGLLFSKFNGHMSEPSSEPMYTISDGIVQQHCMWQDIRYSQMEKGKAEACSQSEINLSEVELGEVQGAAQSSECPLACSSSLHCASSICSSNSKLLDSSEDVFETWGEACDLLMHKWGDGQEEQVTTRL
# protocol notes: TRPC5 inhibitory activity assay (FLIPR calcium fluorescence, Englerin A stimulation)
# Format: cell-based
# setup conditions: Table 1, TRPC5 channels, HEK-293 cells expressing hTRPC5; read-out: FLIPR IC50
# Protocol: HEK-293 cells expressing hTRPC3, hTRPC4 or hTRPC5 were seeded into black-bottomed 96-well plates coated with poly-lysine (PDL), with 2×10^4 cells per well. […] Then, the agonist Englerin A (EA) (MedChemExpress, Shanghai, China, final concentration of 0.3nM) was added, and the fluorescence signal was collected for 600 seconds. […] The area under the curve of the change in fluorescence intensity after adding EA was calculated. […]
pIC50: −log10 of the molar value.
Classification field: satisfied = pIC50 at or over 8; not satisfied = pIC50 under 8.

Below are worked cases with known answers.
>>> print(df.to_string())
                                   compound    class_label
0  CC1CCC(F)(c2nc3c(c(=O)n(CCCO)c(=O)n3C)n2Cc2ccc(Cl)cc2)CC1 (stereo not shown) [Example E39]      satisfied
1  Cn1c(=O)n(CCCO)c(=O)c2c1nc(C1(F)CCC(C(F)(F)F)CC1)n2Cc1ccc(Cl)cc1 (stereo not shown) [Example E21]      satisfied
2  Cn1c(=O)n(CCCO)c(=O)c2c1cc(C1=CCCC1)n2Cc1ccc(Cl)cc1 [Example E1]  not satisfied

Could you please find out whether CC(C)OC1CC=C(c2nc3c(c(=O)n(CCCO)c(=O)n3C)n2Cc2ccc(Cl)cc2)CC1 (stereo not shown) [Example E8] has pIC50 that meets 8 or exceeds it?
not satisfied

----------
Reported values of IC50 for individual entries
# target under test: hERG channel (Homo sapiens, UniProt Q12809)
# Sequence (Q12809 whole entry): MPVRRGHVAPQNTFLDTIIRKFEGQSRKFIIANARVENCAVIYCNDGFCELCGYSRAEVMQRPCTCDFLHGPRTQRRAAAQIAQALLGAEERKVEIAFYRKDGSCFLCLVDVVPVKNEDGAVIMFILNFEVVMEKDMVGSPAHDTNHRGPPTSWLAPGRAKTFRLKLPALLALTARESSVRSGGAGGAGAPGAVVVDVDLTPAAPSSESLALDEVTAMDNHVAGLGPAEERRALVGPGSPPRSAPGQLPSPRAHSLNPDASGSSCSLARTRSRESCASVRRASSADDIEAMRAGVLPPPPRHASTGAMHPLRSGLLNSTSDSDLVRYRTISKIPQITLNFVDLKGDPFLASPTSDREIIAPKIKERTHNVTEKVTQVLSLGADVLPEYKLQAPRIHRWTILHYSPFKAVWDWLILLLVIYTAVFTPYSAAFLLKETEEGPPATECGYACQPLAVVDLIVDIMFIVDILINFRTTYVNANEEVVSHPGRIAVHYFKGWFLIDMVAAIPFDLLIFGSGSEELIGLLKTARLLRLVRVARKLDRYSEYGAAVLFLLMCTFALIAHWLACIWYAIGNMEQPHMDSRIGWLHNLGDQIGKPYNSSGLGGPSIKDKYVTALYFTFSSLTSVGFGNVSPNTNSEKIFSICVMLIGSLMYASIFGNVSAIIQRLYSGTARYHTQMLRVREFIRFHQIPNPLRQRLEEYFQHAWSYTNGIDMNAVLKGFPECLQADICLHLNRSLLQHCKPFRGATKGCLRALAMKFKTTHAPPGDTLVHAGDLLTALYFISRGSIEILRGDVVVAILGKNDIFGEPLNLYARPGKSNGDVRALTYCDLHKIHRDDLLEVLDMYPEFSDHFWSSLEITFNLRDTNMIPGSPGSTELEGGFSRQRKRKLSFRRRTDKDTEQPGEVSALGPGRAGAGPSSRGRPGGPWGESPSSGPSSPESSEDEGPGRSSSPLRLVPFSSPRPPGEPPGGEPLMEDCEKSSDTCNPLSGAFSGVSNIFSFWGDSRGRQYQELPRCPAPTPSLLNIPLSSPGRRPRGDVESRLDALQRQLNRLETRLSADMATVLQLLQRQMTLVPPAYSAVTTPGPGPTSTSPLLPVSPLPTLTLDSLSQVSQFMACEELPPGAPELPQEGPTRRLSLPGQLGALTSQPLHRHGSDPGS
# protocol notes: hERG channel inhibition assay (Qpatch whole-cell recording, CHO cells expressing hERG)
# setup conditions: Table 3; highest test concentration 40 µM; read-out: inhibitory activity IC50 hERG

These solved cases illustrate the format of a correct answer.
                                   compound                         target_under_test  measure_name  measurement
0  Cn1c(=O)n(CCCO)c(=O)c2c1nc(C1(F)CCC(C(F)(F)F)CC1)n2Cc1ccc(F)c(F)c1 (stereo not drawn)  hERG channel (Homo sapiens, UniProt Q12809)          IC50      > 40 µM
1  Cn1c(=O)n(CCCO)c(=O)c2c1nc(C1(F)CCC(F)(F)CC1)n2Cc1ccc(F)c(Cl)c1  hERG channel (Homo sapiens, UniProt Q12809)          IC50      > 40 µM

// switching to the query compound
Identify the reported IC50 for the following entry. Cn1c(=O)n(CCCO)c(=O)c2c1nc(C1(F)CCC(C(F)(F)F)CC1)n2Cc1ccc(Cl)cc1 (stereo not drawn)
> 40 µM

----------
# target under test: hTRPC5 (Homo sapiens)
# Construct: expressed in transfected cells; host or cells: HEK-293
# protocol notes: TRPC5 inhibitory activity assay (FLIPR calcium fluorescence, Englerin A stimulation)
# Format: cell-based
# setup conditions: Table 1, TRPC5 channels, HEK-293 cells expressing hTRPC5; read-out: FLIPR IC50
pIC50: −log10 of the molar value.
Classification field: Criterion met = pIC50 at or over 7; Criterion not met = pIC50 under 7.

Below are worked cases with known answers.
>>> df
                                   compound      target_under_test        class_label
0  Cn1c(=O)n(CCCO)c(=O)c2c1nc(C1(F)CCC(F)(F)CC1)n2Cc1ccc(C(F)(F)F)cc1 [Example E60]  hTRPC5 (Homo sapiens)      Criterion met
1  COC1(c2nc3c(c(=O)n(CCCO)c(=O)n3C)n2Cc2ccc(Cl)cc2)CCC(C(F)(F)F)CC1 (stereo not drawn) [Example E22]  hTRPC5 (Homo sapiens)  Criterion not met
2  Cn1c(=O)n(CCCO)c(=O)c2c1nc(C1(O)CCC(C(F)(F)F)CC1)n2Cc1ccc(Cl)cc1 (stereo not drawn) [Example E23]  hTRPC5 (Homo sapiens)  Criterion not met
3  Cn1c(=O)n(CCCO)c(=O)c2c1nc(C1(F)CCC(C#N)CC1)n2Cc1ccc(Cl)cc1 (stereo not drawn) [Example E40]  hTRPC5 (Homo sapiens)      Criterion met
4  CCC1CCC(F)(c2nc3c(c(=O)n(CCCO)c(=O)n3C)n2Cc2ccc(Cl)cc2)CC1 (stereo not drawn) [Example E30]  hTRPC5 (Homo sapiens)  Criterion not met
5  Cn1c(=O)n(CCCO)c(=O)c2c1nc(C1(F)CCC(C(F)(F)F)CC1)n2Cc1ccccc1 (stereo not drawn) [Example E63]  hTRPC5 (Homo sapiens)      Criterion met

Next up:
Could you please find out whether Cn1c(=O)n(CCCO)c(=O)c2c1nc(C1=CCC(C)(C)CC1)n2Cc1ccc(Cl)cc1 [Example E11] has pIC50 that meets 7 or exceeds it?
Criterion met
